details: in 1,4-dioxane, 293.16 K
measurement.kind: solubility (mole fraction)
Reply with the value as a number alone.

**Query** Requested field: solubility (mole fraction). Item: O=P1(O)OCC2(CO1)COP(=O)(O)OC2 (stereo unspecified)
**Result** 0.00025

----------
settings: in ethanol, 328.17 K
measurement.kind: solubility (mole fraction)
Reply with the value as a number alone.

**Query** Requested field: solubility (mole fraction). Item: O=P1(Oc2ccccc2)OCC2(CO1)COP(=O)(Oc1ccccc1)OC2 (stereo unspecified)
**Result** 0.00329

----------
settings: in acetone, 313.35 K
measurement.kind: solubility (mole fraction)
Reply with the value as a number alone.

**Query** Requested field: solubility (mole fraction). Item: O=P1(O)OCC2(CO1)COP(=O)(O)OC2 (stereo unspecified)
**Result** 0.0053

----------
conditions: in ethanol, 308.16 K
measurement.kind: solubility (mole fraction)

**Query** Requested field: solubility (mole fraction). Item: O=P1(Oc2ccccc2)OCC2(CO1)COP(=O)(Oc1ccccc1)OC2 (stereo unspecified)
**Result** 0.00187

----------
conditions: in ethyl acetate, 328.26 K
measurement.kind: solubility (mole fraction)
Reply with the value as a number alone.

**Query** Requested field: solubility (mole fraction). Item: O=P1(Oc2ccccc2)OCC2(CO1)COP(=O)(Oc1ccccc1)OC2 (stereo unspecified)
**Result** 0.00392

----------
conditions: in cyclohexane, 328.17 K
measurement.kind: solubility (mole fraction)
Reply with the value as a number alone.

**Query** Requested field: solubility (mole fraction). Item: O=P(O)(CO)c1ccccc1
**Result** 0.0018

----------
details: in diethyl ether, 291.16 K
measurement.kind: solubility (mole fraction)
Reply with the value as a number alone.

**Query** Requested field: solubility (mole fraction). Item: O=P1(O)OCC2(CO1)COP(=O)(O)OC2 (stereo unspecified)
**Result** 0.00053

----------
details: in acetone, 313.24 K
measurement.kind: solubility (mole fraction)
Reply with the value as a number alone.

**Query** Requested field: solubility (mole fraction). Item: O=P1(Oc2ccccc2)OCC2(CO1)COP(=O)(Oc1ccccc1)OC2 (stereo unspecified)
**Result** 0.00421

----------
details: in 2-butanone, 318.18 K
measurement.kind: solubility (mole fraction)
Reply with the value as a number alone.

**Query** Requested field: solubility (mole fraction). Item: O=P1(O)OCC2(CO1)COP(=O)(O)OC2 (stereo unspecified)
**Result** 0.0013

----------
details: in acetonitrile, 303.18 K
measurement.kind: solubility (mole fraction)
Reply with the value as a number alone.

**Query** Requested field: solubility (mole fraction). Item: O=C(O)CCP(=O)(O)c1ccccc1
**Result** 0.00015

----------
conditions: in ethanol, 313.35 K
measurement.kind: solubility (mole fraction)
Reply with the value as a number alone.

**Query** Requested field: solubility (mole fraction). Item: COc1ccc(P(=O)(c2ccc(OC)cc2)c2ccc(OC)cc2)cc1
**Result** 0.00102

----------
conditions: in acetic acid, 303.16 K
measurement.kind: solubility (mole fraction)
Reply with the value as a number alone.

**Query** Requested field: solubility (mole fraction). Item: O=P1(O)OCC2(CO1)COP(=O)(O)OC2 (stereo unspecified)
**Result** 0.00026

----------
conditions: in 2-butanone, 293.15 K
measurement.kind: solubility (mole fraction)
Reply with the value as a number alone.

**Query** Requested field: solubility (mole fraction). Item: O=P1(Oc2ccccc2)OCC2(CO1)COP(=O)(Oc1ccccc1)OC2 (stereo unspecified)
**Result** 0.00399

These entries and their values trace back to BigSolDB 2.1.
